meta.source: patent US11591322B2

# measuredOn: CDK9/CyclinT (Homo sapiens (Human))
# Sequence (P50750 whole entry): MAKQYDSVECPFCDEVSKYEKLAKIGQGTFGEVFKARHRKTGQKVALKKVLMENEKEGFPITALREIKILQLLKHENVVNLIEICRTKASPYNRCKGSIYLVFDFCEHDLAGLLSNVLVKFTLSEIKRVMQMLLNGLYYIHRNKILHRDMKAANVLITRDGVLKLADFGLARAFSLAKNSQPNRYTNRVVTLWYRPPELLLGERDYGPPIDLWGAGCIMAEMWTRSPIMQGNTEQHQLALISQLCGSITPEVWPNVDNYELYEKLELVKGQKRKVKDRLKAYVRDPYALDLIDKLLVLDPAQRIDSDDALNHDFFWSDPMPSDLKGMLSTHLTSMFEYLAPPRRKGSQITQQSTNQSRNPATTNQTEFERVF
# Sequence (O60563 whole entry partner): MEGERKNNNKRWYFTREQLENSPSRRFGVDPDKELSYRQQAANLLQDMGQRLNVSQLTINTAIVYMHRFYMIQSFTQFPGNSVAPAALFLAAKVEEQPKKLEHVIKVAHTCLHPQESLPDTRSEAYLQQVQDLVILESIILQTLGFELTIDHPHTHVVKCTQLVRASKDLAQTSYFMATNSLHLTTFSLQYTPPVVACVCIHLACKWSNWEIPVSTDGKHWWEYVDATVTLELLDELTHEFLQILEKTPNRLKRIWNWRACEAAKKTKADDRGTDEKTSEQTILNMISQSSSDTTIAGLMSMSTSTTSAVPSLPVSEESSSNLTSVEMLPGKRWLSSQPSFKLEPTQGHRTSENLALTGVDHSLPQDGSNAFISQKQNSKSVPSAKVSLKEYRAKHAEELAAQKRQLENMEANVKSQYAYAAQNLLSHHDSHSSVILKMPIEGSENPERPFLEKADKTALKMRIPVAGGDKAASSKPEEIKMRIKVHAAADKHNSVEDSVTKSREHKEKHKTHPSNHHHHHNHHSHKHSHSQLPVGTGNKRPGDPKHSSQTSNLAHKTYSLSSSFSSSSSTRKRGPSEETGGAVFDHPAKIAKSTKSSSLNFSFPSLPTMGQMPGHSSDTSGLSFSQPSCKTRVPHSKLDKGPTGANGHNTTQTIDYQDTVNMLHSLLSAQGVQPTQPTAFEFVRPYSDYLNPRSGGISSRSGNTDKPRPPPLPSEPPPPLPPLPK
# experiment: CDK9 biochemical assay (Kinase-Glo Max luminescence)
# testContext: 30° C. for 45 minutes
# Method: To each well of a 96-well plate was added 5× kinase assay buffer with 10 mM DTT (6 μL), 500 μM ATP (1 μL), 5×CDK substrate (10 μL), and water (8 μL). 5 μL of compound were added to the test and positive control groups, while 5 μL of solvent was added to the blank groups. […] Luminescence was measured on a microplate reader and IC50 values were calculated using Prism 9 software.
pIC50: −log10 of the molar value.
Would you kindly list pIC50 for each of these molecules?

Below is a list of molecules. For each, state its recorded pIC50.
1. CC(COCCNS(=O)(=O)C(F)F)NC1CCC(Nc2cc(-c3cccc(NCC4(C#N)CCOCC4)n3)c(Cl)cn2)CC1 (stereo not drawn)
2. CC(C)OC(=O)COC[C@@H](C)N[C@H]1CC[C@H](Nc2cc(-c3cccc(NCC4(C#N)CCOCC4)n3)c(Cl)cn2)CC1
3. CCOC(=O)O[C@H](C)n1nnc(COC[C@H](C)N[C@H]2CC[C@H](Nc3cc(-c4cccc(NCC5(C#N)CCOCC5)n4)c(Cl)cn3)CC2)n1
4. COC[C@@H](C)NC1CCC(Nc2cc(-c3cccc(NCC4(C#N)CCOCC4)n3)c(Cl)cn2)CC1 (stereo partly drawn) [NVP-2, reference compound]
5. C[C@H](COCc1nnn(C)n1)N[C@H]1CC[C@H](Nc2cc(-c3cccc(NCC4(C#N)CCOCC4)n3)c(Cl)cn2)CC1
6. C[C@@H](COCc1nn[nH]n1)NC1CCC(Nc2cc(-c3cccc(NCC4(C#N)CCOCC4)n3)c(Cl)cn2)CC1 (stereo partly drawn)

8.00 to 8.30
8.30 to 8.60
8.30 to 8.60
8.30 to 8.60
8.00 to 8.30
< 8.00

Lab note: each molecule below needs its pIC50 filled in.
1. C[C@H](COCC(=O)O)NC1CCC(Nc2cc(-c3cccc(NCC4(C#N)CCOCC4)n3)c(Cl)cn2)CC1 (stereo partly drawn)
2. C[C@H](Cc1nnn[nH]1)NC1CCC(Nc2cc(-c3cccc(NCC4(C#N)CCOCC4)n3)c(Cl)cn2)CC1 (stereo partly drawn)
3. C[C@@H](COCc1nnn(C)n1)N[C@H]1CC[C@H](Nc2cc(-c3cccc(NCC4(C#N)CCOCC4)n3)c(Cl)cn2)CC1
4. C[C@H](COCc1nnnn1C)N[C@H]1CC[C@H](Nc2cc(-c3cccc(NCC4(C#N)CCOCC4)n3)c(Cl)cn2)CC1

8.30 to 8.60
< 8.00
< 8.00
> 8.60

For each of the molecules below, note its pIC50.
1. CCOC(=O)O[C@@H](C)n1nnnc1COC[C@@H](C)N[C@H]1CC[C@H](Nc2cc(-c3cccc(NCC4(C#N)CCOCC4)n3)c(Cl)cn2)CC1
2. CCOC(=O)COC[C@H](C)NC1CCC(Nc2cc(-c3cccc(NCC4(C#N)CCOCC4)n3)c(Cl)cn2)CC1 (stereo partly drawn)
3. CCOC(=O)O[C@@H](C)n1nnc(COC[C@H](C)N[C@H]2CC[C@H](Nc3cc(-c4cccc(NCC5(C#N)CCOCC5)n4)c(Cl)cn3)CC2)n1
4. CCOC(=O)O[C@H](C)n1nnc(COC[C@@H](C)N[C@H]2CC[C@H](Nc3cc(-c4cccc(NCC5(C#N)CCOCC5)n4)c(Cl)cn3)CC2)n1
5. C[C@H](COCc1nn[nH]n1)N[C@H]1CC[C@H](Nc2cc(-c3cccc(NCC4(C#N)CCOCC4)n3)c(Cl)cn2)CC1
6. C[C@@H](COCc1nnnn1C)N[C@H]1CC[C@H](Nc2cc(-c3cccc(NCC4(C#N)CCOCC4)n3)c(Cl)cn2)CC1
7. C[C@@H](Cc1nnn[nH]1)NC1CCC(Nc2cc(-c3cccc(NCC4(C#N)CCOCC4)n3)c(Cl)cn2)CC1 (stereo partly drawn)

1: > 8.60; 2: > 8.60; 3: < 8.00; 4: > 8.60; 5: < 8.00; 6: > 8.60; 7: < 8.00

List the reported pIC50 of each molecule below.
1. C[C@H](COCCNS(=O)(=O)C(F)(F)F)NC1CCC(Nc2cc(-c3cccc(NCC4(C#N)CCOCC4)n3)c(Cl)cn2)CC1 (mixture of isomers)
2. CCOC(=O)O[C@@H](C)n1nnnc1COC[C@H](C)N[C@H]1CC[C@H](Nc2cc(-c3cccc(NCC4(C#N)CCOCC4)n3)c(Cl)cn2)CC1
3. CCOC(=O)COC[C@@H](C)NC1CCC(Nc2cc(-c3cccc(NCC4(C#N)CCOCC4)n3)c(Cl)cn2)CC1 (stereo partly drawn)
4. C[C@H](COCC(=O)OC(C)(C)C)N[C@H]1CC[C@H](Nc2cc(-c3cccc(NCC4(C#N)CCOCC4)n3)c(Cl)cn2)CC1
5. C[C@@H](COCC(=O)OC(C)(C)C)N[C@H]1CC[C@H](Nc2cc(-c3cccc(NCC4(C#N)CCOCC4)n3)c(Cl)cn2)CC1
6. CCOC(=O)O[C@H](C)n1nnnc1COC[C@@H](C)N[C@H]1CC[C@H](Nc2cc(-c3cccc(NCC4(C#N)CCOCC4)n3)c(Cl)cn2)CC1

8.30 to 8.60
> 8.60
> 8.60
< 8.00
8.30 to 8.60
> 8.60
